We begin with a simple list: items and their reported LD50.
Tested on: Mus musculus
measurement-setup: acute; oral
Write down the numeric answer in mg/kg and omit the unit.

Use the examples below as a reference point.
Specify reported LD50 for the compound shown: CCCCCCCCOC(=O)c1ccccc1C(=O)OCCCCCCCC [Di-n-octyl phthalate] 13000

Quickly give me recorded LD50 for Cc1cccc([N+](=O)[O-])c1 1230

Others:
Determine from records and report LD50 for CCN(O)CC [N,N-Diethylhydroxylamine] 2150

###

System: Mus musculus
measurement-setup: uterotrophic; duration: 3 days; injection; intraperitoneal; Active
measure: LEL (mg/kg-day)
Expressed in mg/kg-day, but write only the number.

Supply recorded LEL for CC/C(=C(/CC)c1ccc(O)cc1)c1ccc(O)cc1 here. 0.1

Continuing:
Determine its reported LEL: CC(C)(c1ccc(O)cc1)c1ccc(O)cc1 20

Give LEL for CC(C)(c1cc(Br)c(O)c(Br)c1)c1cc(Br)c(O)c(Br)c1 20

Note LEL for the compound shown: CC(C)(c1cc(Cl)c(O)c(Cl)c1)c1cc(Cl)c(O)c(Cl)c1 20

###

System: Rattus norvegicus
measurement-setup: Hershberger; duration: 10 days; oral; gavage; Wistar; active + Negative + Antiandrogenic + anti-androgenic
measure: LOEL (mg/kg-day)
Express it in mg/kg-day; write the number only.

Worked examples follow.
Provide measured LOEL on Rattus norvegicus for Clc1ccc(C(c2ccc(Cl)cc2)C(Cl)Cl)cc1 please. 200

Answer with LOEL of CCCCCOC(=O)c1ccccc1C(=O)OCCCCC [Dipentyl phthalate] measured for Rattus norvegicus. 1000

Provide LOEL, recorded with Rattus norvegicus, of CC(=O)S[C@@H]1CC2=CC(=O)CC[C@]2(C)[C@H]2CC[C@@]3(C)[C@@H](CC[C@@]34CCC(=O)O4)[C@H]12 40

Shift focus to the following entry.
Specify LOEL for CC(=O)[C@@]1(O)CC[C@H]2[C@@H]3C[C@H](C)C4=CC(=O)CC[C@]4(C)[C@H]3CC[C@@]21C , system Rattus norvegicus. 100

###

Tested on: Rattus norvegicus
measurement-setup: acute; inhalation; Sprague-Dawley
measure: LC50

Note LC50 for the compound shown: Cc1cccc([N+](=O)[O-])c1 > 881 mg/m3

Query LC50 for CCBr 120000 mg/m3

Given CCN(O)CC [N,N-Diethylhydroxylamine] , respond with its LC50. 11400 mg/m3

Give the measured LC50 for Cc1ccc(N(C)C)cc1 1.4 µg/mL

Supply measured LC50 of Cc1cccnc1 in your reply. < 11800 µg/mL

Look up LC50 of N#CCCCCC#N and report it. 1.71 µg/mL

Next:
Entry CC(C)C#N needs its LC50 filled in; supply it. > 2830 mg/m3

Input c1ccccc1 , output reported LC50. 43800 mg/m3

###

Tested on: Rattus norvegicus
measurement-setup: Hershberger; duration: 10 days; oral; gavage; Wistar; active + Negative + Antiandrogenic + anti-androgenic
measure: NOEL (mg/kg-day)
Quick reminder: number only, in mg/kg-day, skip the unit.

The following compounds have reported results that may help.
# return NOEL for CC(=O)[C@@]1(O)CC[C@H]2[C@@H]3C[C@H](C)C4=CC(=O)CC[C@]4(C)[C@H]3CC[C@@]21C [Medroxyprogesterone] , test system: Rattus norvegicus 20

Output reported NOEL of the compound CCCCCOC(=O)c1ccccc1C(=O)OCCCCC [Dipentyl phthalate] on Rattus norvegicus. 200

# return NOEL for CC(=O)S[C@@H]1CC2=CC(=O)CC[C@]2(C)[C@H]2CC[C@@]3(C)[C@@H](CC[C@@]34CCC(=O)O4)[C@H]12 [Spironolactone] , test system: Rattus norvegicus 8

Continuing:
Please indicate recorded NOEL of Clc1ccc(C(c2ccc(Cl)cc2)C(Cl)Cl)cc1 [p,p'-DDD] measured with Rattus norvegicus. 40

###

Readings of LEL for the listed compounds
Tested on: Rattus norvegicus
measurement-setup: uterotrophic; duration: 3 days; injection; subcutaneous; Active
Please respond with the number in mg/day and leave the unit unwritten.

Answer with the recorded LEL for the compound listed here: Cc1c(O)ccc2c1CC[C@@H]1[C@@H]2CC[C@]2(C)[C@@H](O)CC[C@@H]12 0.005

Let us move to another entry and its LEL.
Answer with reported LEL of C[C@]12CCC(=O)C=C1CC[C@@H]1[C@@H]2CC[C@]2(C)C(=O)CC[C@@H]12 5

###

Reported LC50 values for a set of molecules
System: Rattus norvegicus
measurement-setup: acute; Inhalation; Wistar

Write LC50 of CCCCOCCOCCOCOCCOCCOCCCC [Bis(butoxyethoxyethoxy)methane] ; system used: Rattus norvegicus > 200 µg/mL

More entries:
Fill in: LC50 on Rattus norvegicus, entry CC(=O)Oc1cccc(Oc2ccc(C(F)(F)F)cc2Cl)c1 [2-Chloro-1-(3-acetoxyphenoxy)-4-(trifluoromethyl)benzene] > 4.13 µg/mL

Recall the reported LC50 of CCCCCCCCCc1cc2ccccc2c(S(=O)(=O)[O-])c1CCCCCCCCC.CCCCCCCCCc1cc2ccccc2c(S(=O)(=O)[O-])c1CCCCCCCCC.[Ba+2] [Naphthalenesulfonic acid, dinonyl-, barium salt] when tested on Rattus norvegicus. > 21 µg/mL

# return LC50 for CCCCCCCCCc1cc2ccccc2c(S(=O)(=O)[O-])c1CCCCCCCCC.CCCCCCCCCc1cc2ccccc2c(S(=O)(=O)[O-])c1CCCCCCCCC.[Ca+2] [Calcium bis(dinonylnaphthalenesulphonate)] , test system: Rattus norvegicus > 18 µg/mL

###

We begin with a simple list: items and their reported NOAEL.
System: Rattus norvegicus
measurement-setup: reproduction developmental; oral; gavage; F; Sprague-Dawley
# output: bare number, implied unit mg/kg-day

Example entries and their recorded answers appear below.
Respond only with NOAEL recorded for Nc1ccc(Oc2ccc(N)cc2)cc1 10

Identify NOAEL associated with the compound CC(C)CCCCC(=O)O 400

Give the reported NOAEL for this compound. CCN(O)CC [N,N-Diethylhydroxylamine] 250

Attention now turns to another entry.
Provide measured NOAEL value, entry: CCCCCCCCCCCCCOC(=O)c1ccccc1C(=O)OCCCCCCCCCCCCC [Ditridecyl phthalate] 50

###

System: Oryctolagus sp.
measurement-setup: acute; dermal; occlusive; New Zealand
Here the recorded LD50 is given for each entry.

Worked cases, answers included:
Give the reported LD50 for this molecule. CC(C)C#N 239 mg/kg

Tell me LD50 reported for N#CCCCCC#N 2130 mg/kg

Fill in reported LD50 for this entry: CC(=O)Oc1cccc(Oc2ccc(C(F)(F)F)cc2Cl)c1 > 200 mg/kg

Next:
Input CC(C)CCC(C)Nc1ccc(Nc2ccccc2)cc1 (stereo not drawn) , output reported LD50. > 5010 mg/kg

# return recorded LD50 for input Cc1ccc([N+](=O)[O-])cc1C > 5700 mg/kg

Determine its reported LD50: CCCCCCCCc1ccc(Nc2ccc(CCCCCCCC)cc2)cc1 > 7940 mg/kg

Report LD50, nothing else, for this molecule: CCCCOC(=O)CC [Butyl propionate] > 14000 mg/kg

Output LD50 of CC(C)(C)c1cc(CCC(=O)OCCSCCOC(=O)CCc2cc(C(C)(C)C)c(O)c(C(C)(C)C)c2)cc(C(C)(C)C)c1O > 3000 mg/kg

###

System: Rattus norvegicus
measurement-setup: developmental; duration: 10 days; oral; gavage; Sprague-Dawley
measure: NOAEL (mg/kg-day)
// return numeric value only (unit: mg/kg-day, not printed)

Tell me measured NOAEL for CC(C)(C)c1cc(CCC(=O)OCC(COC(=O)CCc2cc(C(C)(C)C)c(O)c(C(C)(C)C)c2)(COC(=O)CCc2cc(C(C)(C)C)c(O)c(C(C)(C)C)c2)COC(=O)CCc2cc(C(C)(C)C)c(O)c(C(C)(C)C)c2)cc(C(C)(C)C)c1O please. 1000

Using known records, supply NOAEL for Clc1cccc(Cl)c1Cl 600

Return reported NOAEL. Input compound: NC(=Nc1ccccc1)Nc1ccccc1 25

###

System: Oryctolagus sp.
measurement-setup: acute; dermal; New Zealand
measure: LD50

Check Oryctolagus sp. data and give LD50 for C=CC(C)CCC=C(C)C (centres undefined) [Dihydromyrcene] . > 5000 mg/kg

More entries:
Give LD50 only, for C=CC(=C)CCC=C(C)C [Myrcene] , using Oryctolagus sp. data. > 5000 mg/kg

Under Oryctolagus sp., report LD50 for CCC(C)OP(=S)([S-])OC(C)CC(C)C.CCC(C)OP(=S)([S-])OC(C)CC(C)C.[Zn+2] (centres undefined) > 5000 mg/kg

// fetch LD50; item: CCCCCCCCCc1cc2ccccc2c(S(=O)(=O)[O-])c1CCCCCCCCC.CCCCCCCCCc1cc2ccccc2c(S(=O)(=O)[O-])c1CCCCCCCCC.[Ba+2] [Naphthalenesulfonic acid, dinonyl-, barium salt] ; system: Oryctolagus sp. < 20000 mg/kg

###

System: Rattus norvegicus
measurement-setup: acute; oral; Sprague-Dawley
Here the recorded LD50 is given for each entry.
Report the figure in mg/kg without appending any unit label.

Entry Cc1cccc(C#N)c1 needs its LD50 filled in; supply it. 3000

Dear colleague, please send me the reported LD50 for Cc1ccc(N(C)C)cc1 when you can. 1650

Input Cc1cccc([N+](=O)[O-])c1 , output reported LD50. 1070
